Assay: Volume of distribution at steady state in Sprague-Dawley rat at 1.2 mg/kg, iv
Format: ADME, organism-based
Parameters: dose 1.2 mg/kg, route intravenous
Conditions: in vivo, read-out: Vdss
Recorded endpoint: Vd

If you can, please state the reported Vd value of COc1ccc(C2=NC(c3ccc(F)cc3)C(C(=O)Nc3ccc4[nH]ncc4c3)=C(C)N2)cc1 (stereo unspecified) .
5.1 L/kg

###

Assay: Half life in Sprague-Dawley rat at 1.1 mg/kg, iv
Assay type: ADME, organism-based
Parameters: dose 1.1 mg/kg, route intravenous
Conditions: Sprague-Dawley, in vivo
Recorded endpoint: half-life (h)
The figure you give is taken to be in h; do not add the unit.

If you can, please state the reported half-life value of COc1ccc(C2=NC(c3ccc(Cl)cc3F)C(C(=O)Nc3ccc4[nH]ncc4c3)=C(C)N2)cc1 (stereo unspecified) .
1.13

###

Entries below carry reported pIC50 on Ribosomal protein S6 kinase beta-1 (Homo sapiens).
Sequence (P23443 whole entry): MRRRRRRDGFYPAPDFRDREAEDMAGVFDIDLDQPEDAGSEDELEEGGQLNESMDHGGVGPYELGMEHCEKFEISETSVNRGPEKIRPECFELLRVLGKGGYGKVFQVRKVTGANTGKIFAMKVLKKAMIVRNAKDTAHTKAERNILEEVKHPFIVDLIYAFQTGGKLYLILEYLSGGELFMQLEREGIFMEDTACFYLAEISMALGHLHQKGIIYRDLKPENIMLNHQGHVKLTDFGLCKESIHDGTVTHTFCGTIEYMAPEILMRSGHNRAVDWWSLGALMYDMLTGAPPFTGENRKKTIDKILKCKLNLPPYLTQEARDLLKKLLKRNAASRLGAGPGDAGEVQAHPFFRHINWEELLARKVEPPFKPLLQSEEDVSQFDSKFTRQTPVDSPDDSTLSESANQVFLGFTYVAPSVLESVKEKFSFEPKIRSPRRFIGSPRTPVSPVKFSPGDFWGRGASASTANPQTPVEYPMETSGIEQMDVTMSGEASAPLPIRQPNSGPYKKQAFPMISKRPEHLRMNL
Please note pIC50 is a logarithmic value: minus log10 of concentration in mol/L. Answer with that number alone.

> print(dat)
                                   compound  observed.result
1  CC1=C(C(=O)Nc2ccc3[nH]ncc3c2)C(c2ccc(F)cc2)N=C(c2ccccc2)N1 (configuration not stated)             5.35

Attention now turns to another entry.
If you can, please state the reported pIC50 value of CC1=C(C(=O)Nc2cc3cn[nH]c3cc2F)C(c2ccc(Cl)cc2F)N=C(c2ccnc(Cl)c2)N1 (configuration not stated) .
6.00

###

Form field: bioavailability (one value per entry).
Test: Oral bioavailability in Sprague-Dawley rat at 1.2 mg/kg
Type: ADME, organism-based
Conditions: in vivo
The figure you give is taken to be in %; do not add the unit.

> print(dat)
                                   compound  recorded.endpoint  observed.result
1  CC1=C(C(=O)Nc2ccc3[nH]ncc3c2)C(c2ccc(F)cc2)N=C(c2ccncc2)N1 (configuration not stated)    bioavailability                0

Attention now turns to another entry.
If you can, please state the reported bioavailability value of COc1ccc(C2=NC(c3ccc(F)cc3)C(C(=O)Nc3ccc4[nH]ncc4c3)=C(C)N2)cc1 (configuration not stated) .
35

###

Test system: Rattus norvegicus
Test: Volume of distribution at steady state in Sprague-Dawley rat at 1.1 mg/kg, iv
Type: ADME, organism-based
Design: dose 1.1 mg/kg, route intravenous
Settings: in vivo
Recorded endpoint: Vdss

// known answers, use as guide
> print(dat)
                                   compound  observed.result
1  COc1cc(C2=NC(c3ccc(Cl)cc3F)C(C(=O)Nc3cc4cn[nH]c4cc3F)=C(C)N2)ccn1 (centres undefined)         2.5 L/kg
2  CC1=C(C(=O)Nc2ccc3[nH]ncc3c2)C(c2ccc(Cl)cc2F)N=C(c2ccnc(Cl)c2)N1 (centres undefined)         1.6 L/kg
3  COc1cc(C2=NC(c3ccc(Cl)cc3F)C(C(=O)Nc3ccc4[nH]ncc4c3)=C(C)N2)ccn1 (centres undefined)           2 L/kg

Attention now turns to another entry.
Return Vdss measured with Rattus norvegicus given this compound: CC1=C(C(=O)Nc2cc3cn[nH]c3cc2F)C(c2ccc(Cl)cc2F)N=C(c2ccnc(Cl)c2)N1 (centres undefined)
2 L/kg
